Biological target: human IL-23R (Homo sapiens)
Construct: UniProtKB—Q5VWK5, amino acids 22-629; secretion signal of the plasmid (Promega N1371); expressed in transfected cells
Assay: Binding assay (NanoBRET displacement of fluorophore-labelled reference compound) for estimating binding affinity to human IL-23R
Conditions: Table 3-1; read-out: Ki hIL-23R
*1 amine or outer side, *2 acyl side, *3 side chain or, on linkers, in order; H or OH if unused. Where a SMILES comes first, the peptide text is derived from it. Bridges are numbered along the chain shown (N, C = ends). [ ]: non-standard residue; d: D form. Trp(6-F) = N[C@@H](Cc1c[nH]c2cc(F)ccc12)C(=O)O; 2Nal = N[C@@H](Cc1ccc2ccccc2c1)C(=O)O; AEF = NCCOc1ccc(C[C@H](N)C(=O)O)cc1; X1 = O=C(Cc1ccc(CN[*:1])cc1)[*:2]; 3Pal = N[C@@H](Cc1cccnc1)C(=O)O; αMeL = CC(C)C[C@](C)(N)C(=O)O; CH2COCH2 = O=C(C[*:1])C[*:2]; Dab = NCC[C@H](N)C(=O)O
A collection of molecules and their measured Ki
Entry rule: numbers only, all in nM.

Use the examples below as a reference point.
molecule="CC(C)C[C@]1(C)NC(=O)[C@H](Cc2c[nH]c3cc(F)ccc23)NC(=O)[C@H](Cc2ccc(OCCN)cc2)NC(=O)[C@@H]2CSCC(=O)CSC[C@H](NC(=O)[C@H](CO)NC(=O)Cc3ccc(cc3)CNC(=O)CC[C@@H](C(=O)N[C@@H](CCN)C(=O)N[C@@H](Cc3cccnc3)C(N)=O)NC1=O)C(=O)N[C@@H](Cc1c[nH]c3ccccc13)C(=O)N[C@@H](CCC(N)=O)C(=O)N2 [Compound 121] ([X1]SCWQC[AEF][Trp(6-F)][αMeL]E[Dab][3Pal]-NH2; linker 3-6 via CH2COCH2; lactam N-10)" assay_endpoint=Ki endpoint_value=0.00954
molecule="CC(=O)N[C@H]1CCCCNC(=O)CC[C@@H](C(=O)N[C@@H](CCCNC(=N)N)C(N)=O)NC(=O)[C@@H](CC(C)C)NC(=O)[C@H](Cc2ccc3ccccc3c2)NC(=O)[C@H](Cc2ccc(OCCN)cc2)NC(=O)[C@@H]2CSCC(=O)CSC[C@H](NC(=O)[C@H](CO)NC1=O)C(=O)N[C@@H](Cc1c[nH]c3ccccc13)C(=O)N[C@@H](CCC(N)=O)C(=O)N2 [Compound 48] (Ac-KSCWQC[AEF][2Nal][dL]ER-NH2; lactam 1-10; linker 3-6 via CH2COCH2)" assay_endpoint=Ki endpoint_value=17

As a next step, examine the molecule that follows.
# molecule CC(C)C[C@]1(C)NC(=O)[C@H](Cc2ccc3ccccc3c2)NC(=O)[C@H](Cc2ccc(OCCN)cc2)NC(=O)[C@@H]2CSCC(=O)CSC[C@H](NC(=O)[C@H](CO)NC(=O)Cc3ccc(cc3)CNC(=O)CC[C@@H](C(=O)N[C@H](Cc3c[nH]cn3)C(N)=O)NC1=O)C(=O)N[C@@H](Cc1c[nH]c3ccccc13)C(=O)N[C@@H](CCC(N)=O)C(=O)N2 [Compound 117] ([X1]SCWQC[AEF][2Nal][αMeL]E[dH]-NH2; linker 3-6 via CH2COCH2; lactam N-10) ; its Ki = 0.188

Value source: patent US20250154198A1
